Target: Purine nucleoside phosphorylase (Homo sapiens, UniProt P00491)
Sequence (P00491 whole entry): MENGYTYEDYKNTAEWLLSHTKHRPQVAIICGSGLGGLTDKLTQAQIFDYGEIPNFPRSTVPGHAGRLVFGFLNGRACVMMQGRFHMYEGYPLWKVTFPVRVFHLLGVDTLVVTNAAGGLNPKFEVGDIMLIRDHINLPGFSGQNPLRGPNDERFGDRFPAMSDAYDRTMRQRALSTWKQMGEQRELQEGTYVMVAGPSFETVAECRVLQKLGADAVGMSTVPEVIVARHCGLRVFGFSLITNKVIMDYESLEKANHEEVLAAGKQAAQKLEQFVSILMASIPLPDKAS
observation type: Ki (pM)
Answer with a number only, understood to be in pM.

// O=c1[nH]cnc2c(CN3C[C@@H](O)[C@](F)(CO)C3)c[nH]c12 : Ki value = 18000

// O=c1[nH]cnc2c(CN3C[C@@H](CO)[C@H](O)C3)c[nH]c12 : Ki value = 380

// O=c1[nH]cnc2c(CN3C[C@H](O)[C@@](F)(CO)C3)c[nH]c12 : Ki value = 330

====

Molecular target: Purine nucleoside phosphorylase (Plasmodium falciparum, UniProt Q8T9Z7)
Sequence (Q8T9Z7 whole entry): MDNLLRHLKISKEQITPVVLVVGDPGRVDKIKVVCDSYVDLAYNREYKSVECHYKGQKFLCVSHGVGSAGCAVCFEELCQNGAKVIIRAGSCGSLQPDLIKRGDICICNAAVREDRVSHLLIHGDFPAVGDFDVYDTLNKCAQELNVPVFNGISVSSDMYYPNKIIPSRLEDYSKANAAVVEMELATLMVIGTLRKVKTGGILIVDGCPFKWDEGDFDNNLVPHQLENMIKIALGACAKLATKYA
Assay: Inhibition of Plasmodium falciparum purine nucleoside phosphorylase by xanthine-oxidase coupled assay
observation type: pKi
Formally, pKi is defined as -log10 of the concentration c, with c in mol/L.

Field pKi (system: Purine nucleoside phosphorylase (Plasmodium falciparum, UniProt Q8T9Z7)) for entry O=c1[nH]cnc2c(CN3C[C@@H](CO)[C@H](O)C3)c[nH]c12 = 7.10

Field pKi (system: Purine nucleoside phosphorylase (Plasmodium falciparum, UniProt Q8T9Z7)) for entry O=c1[nH]cnc2c(CN3C[C@H](O)[C@@](F)(CO)C3)c[nH]c12 (racemic) = 8.44

Field pKi (system: Purine nucleoside phosphorylase (Plasmodium falciparum, UniProt Q8T9Z7)) for entry O=c1[nH]cnc2c(CN3C[C@H](O)[C@@](F)(CO)C3)c[nH]c12 = 8.58

Field pKi (system: Purine nucleoside phosphorylase (Plasmodium falciparum, UniProt Q8T9Z7)) for entry O=c1[nH]cnc2c(CN3C[C@@H](O)[C@](F)(CO)C3)c[nH]c12 = 6.59
